Data origin, for the record: patent US20120316071A1

Target: T1, Recombinant Human DLL4 (R&D Systems Cat#1506-D4/CF) (human, UniProt Q9NR61 27-529)
T1 construct: Bought recombinant protein, coated on the plate; also called delta-like protein 4; rHuman DLL4
Experiment: ECL 96-well plate assay (MSD), 0.1 µM Fab, plate coated with 30 µg/mL DLL4
property-measured: Signal/Noise
Write the value as a bare number.

Solved cases (2 shown):
INSERT INTO results (binder, observed) VALUES
  ('Fab VH5-51_IGHD5-18*01>3_IGHJ4*01 S102A & V3-4_IGLJ1*01 (Fab, V domains shown, Heavy chain CDR3 alanine mutant of the parent Fab; Fab format as for the parent) VH: EVQLVQSGAEVKKPGESLKISCKGSGYSFTSYWIGWVRQMPGKGLEWMGIIYPGDSDTRYSPSFQGQVTISADKSISTAYLQWSSLKASDTAMYYCARRGYAYGYDYFDYWGQGTLVTVSS VL: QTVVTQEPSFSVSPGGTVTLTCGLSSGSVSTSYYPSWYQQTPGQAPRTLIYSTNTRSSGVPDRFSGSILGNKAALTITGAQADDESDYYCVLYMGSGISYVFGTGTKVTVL', 4.7),
  ('Fab VH5-51_IGHD5-18*01>3_IGHJ4*01 Y105A & V3-4_IGLJ1*01 (Fab, V domains shown, Heavy chain CDR3 alanine mutant of the parent Fab; Fab format as for the parent) VH: EVQLVQSGAEVKKPGESLKISCKGSGYSFTSYWIGWVRQMPGKGLEWMGIIYPGDSDTRYSPSFQGQVTISADKSISTAYLQWSSLKASDTAMYYCARRGYSYGADYFDYWGQGTLVTVSS VL: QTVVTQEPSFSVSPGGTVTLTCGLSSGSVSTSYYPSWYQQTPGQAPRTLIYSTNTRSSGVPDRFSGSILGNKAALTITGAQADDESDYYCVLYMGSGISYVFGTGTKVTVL', 1);

Now for another entry.
Exercise: May I ask what Signal/Noise has been recorded for Fab VH5-51_IGHD5-18*01>3_IGHJ4*01 & V3-4_IGLJ1*01 (Fab, V domains shown, Tested as Fab from E. coli; VH was cloned into Plasmid A, which supplies CH1 and His6 and Flag tags; The lambda VL was cloned into Plasmid E, which supplies lambda CL; also called wildtype; parent Hit Fab VH5-51_IGHD5-18*01_IGHJ4*01 & V3-4_IGLJ1*01) VH: EVQLVQSGAEVKKPGESLKISCKGSGYSFTSYWIGWVRQMPGKGLEWMGIIYPGDSDTRYSPSFQGQVTISADKSISTAYLQWSSLKASDTAMYYCARRGYSYGYDYFDYWGQGTLVTVSS VL: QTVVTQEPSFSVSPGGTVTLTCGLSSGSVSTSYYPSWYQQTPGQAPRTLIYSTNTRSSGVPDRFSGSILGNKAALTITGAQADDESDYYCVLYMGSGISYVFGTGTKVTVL ?
Key: 24
